Provide the recorded pIC50 for the entries that follow.
# experiment notes: Cytotoxicity against human NCI-H929 cells after 3 days by Alamar blue assay
# Assay type: functional, cell-based
# run parameters: NCI-H929, 72 h
The value called pIC50 is obtained by taking minus log10 of the concentration in mol/L.

Given CCCCO[C@H]1CC(=O)[C@]2(C)[C@H]3CC[C@]4(C)[C@@H]([C@H](C)[C@H]5CC(C)=C(CO)C(=O)O5)CC[C@H]4[C@@H]3C[C@H]3O[C@]32[C@H]1O , state its recorded pIC50.
5.06

// returns reported pIC50 for input CC1=C(CO)C(=O)O[C@@H]([C@@H](C)[C@H]2CC[C@H]3[C@@H]4C[C@H]5O[C@]56[C@@H](O)C=CC(=O)[C@]6(C)[C@H]4C[C@@H](O)[C@]23C)C1
5.37

What value of measured pIC50 is listed for CC1=C(CO)C(=O)O[C@@H]([C@@H](C)[C@H]2CC[C@H]3[C@@H]4C[C@H]5O[C@]56[C@H](O)C=CC(=O)[C@]6(C)[C@H]4CC[C@]23C)C1 ?
6.55

May I ask what pIC50 has been recorded for CC1=C(CO)C(=O)O[C@@H]([C@@H](C)[C@H]2CC[C@H]3[C@@H]4C[C@H]5O[C@]56[C@@H](O)[C@@H](OS(=O)(=O)O)CC(=O)[C@]6(C)[C@H]4CC[C@]23C)C1 ?
5.28

The measurements presented in this section are drawn from ChEMBL document CHEMBL3232757.
